# tested target: Homeodomain-interacting protein kinase 1 (Homo sapiens)
# Sequence (Q86Z02 whole entry): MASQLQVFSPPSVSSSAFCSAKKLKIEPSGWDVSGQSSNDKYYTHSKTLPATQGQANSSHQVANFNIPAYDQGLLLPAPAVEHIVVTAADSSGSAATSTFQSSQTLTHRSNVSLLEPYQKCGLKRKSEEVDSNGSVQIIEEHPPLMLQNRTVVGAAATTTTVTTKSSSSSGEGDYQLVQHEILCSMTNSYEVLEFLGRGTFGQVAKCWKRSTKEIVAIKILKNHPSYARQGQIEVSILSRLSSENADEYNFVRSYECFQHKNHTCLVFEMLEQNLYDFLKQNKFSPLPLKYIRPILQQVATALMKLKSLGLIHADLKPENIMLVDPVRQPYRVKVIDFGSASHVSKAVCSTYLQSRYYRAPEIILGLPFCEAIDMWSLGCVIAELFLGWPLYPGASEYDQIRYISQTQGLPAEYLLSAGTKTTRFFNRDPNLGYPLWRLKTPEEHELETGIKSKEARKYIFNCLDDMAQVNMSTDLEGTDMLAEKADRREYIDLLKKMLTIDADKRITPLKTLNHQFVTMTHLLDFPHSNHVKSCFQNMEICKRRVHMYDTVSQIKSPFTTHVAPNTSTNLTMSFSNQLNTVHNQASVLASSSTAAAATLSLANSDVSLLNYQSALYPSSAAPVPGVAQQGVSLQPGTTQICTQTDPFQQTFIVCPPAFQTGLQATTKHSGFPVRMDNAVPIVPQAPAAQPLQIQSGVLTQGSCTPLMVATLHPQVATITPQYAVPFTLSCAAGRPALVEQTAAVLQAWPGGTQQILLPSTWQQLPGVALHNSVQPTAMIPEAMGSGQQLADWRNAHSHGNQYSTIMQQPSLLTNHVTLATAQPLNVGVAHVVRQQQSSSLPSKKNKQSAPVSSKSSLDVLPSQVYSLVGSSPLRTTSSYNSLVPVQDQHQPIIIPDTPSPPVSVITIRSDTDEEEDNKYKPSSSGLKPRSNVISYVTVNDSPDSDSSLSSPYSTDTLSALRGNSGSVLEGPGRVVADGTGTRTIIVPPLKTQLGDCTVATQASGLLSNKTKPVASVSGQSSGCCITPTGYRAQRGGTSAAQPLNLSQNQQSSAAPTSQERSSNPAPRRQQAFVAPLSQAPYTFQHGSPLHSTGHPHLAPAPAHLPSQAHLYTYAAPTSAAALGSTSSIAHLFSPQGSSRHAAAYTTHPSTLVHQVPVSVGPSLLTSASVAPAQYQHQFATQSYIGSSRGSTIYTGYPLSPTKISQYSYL
Below, each of the molecules is paired with its reported IC50 value.

The following molecules have reported results that may help.
COc1ccc(-c2cnc3ccc(NC(=O)NC(C)(C)C)nc3c2)cc1OC :: > 100 µM
CCNC(=O)Nc1ccc2ncc(-c3ccc(OC)c(OC)c3)cc2n1 :: 13.6 µM

Next molecule, please.
In: Notebook entry, Homeodomain-interacting protein kinase 1 (Homo sapiens) assay: IC50 of Cn1cc(-c2cnc3ccc(NC(=O)NC(C)(C)C)nc3c2)cn1 = ?
Out: > 100 µM

====

pIC50 values recorded for Tyrosine-protein kinase Yes (Homo sapiens, UniProt P07947)
pIC50: −log10 of the molar value.
measured quantity: pIC50

(1) COc1ccc(-c2cnc3ccc(NC(=O)NC(C)(C)C)nc3c2)cc1OC
(2) CCNC(=O)Nc1ccc2ncc(-c3ccc(OC)c(OC)c3)cc2n1
In: // which entry has the larger pIC50 value, 1 or 2 ? Reply briefly: the label of your chosen item.
Out: 2
